# TARGET_OR_TEST_SYSTEM: T1, ΔNp63α (Homo sapiens, UniProt Q9H3D4-2 1-586)
# T1 sequence: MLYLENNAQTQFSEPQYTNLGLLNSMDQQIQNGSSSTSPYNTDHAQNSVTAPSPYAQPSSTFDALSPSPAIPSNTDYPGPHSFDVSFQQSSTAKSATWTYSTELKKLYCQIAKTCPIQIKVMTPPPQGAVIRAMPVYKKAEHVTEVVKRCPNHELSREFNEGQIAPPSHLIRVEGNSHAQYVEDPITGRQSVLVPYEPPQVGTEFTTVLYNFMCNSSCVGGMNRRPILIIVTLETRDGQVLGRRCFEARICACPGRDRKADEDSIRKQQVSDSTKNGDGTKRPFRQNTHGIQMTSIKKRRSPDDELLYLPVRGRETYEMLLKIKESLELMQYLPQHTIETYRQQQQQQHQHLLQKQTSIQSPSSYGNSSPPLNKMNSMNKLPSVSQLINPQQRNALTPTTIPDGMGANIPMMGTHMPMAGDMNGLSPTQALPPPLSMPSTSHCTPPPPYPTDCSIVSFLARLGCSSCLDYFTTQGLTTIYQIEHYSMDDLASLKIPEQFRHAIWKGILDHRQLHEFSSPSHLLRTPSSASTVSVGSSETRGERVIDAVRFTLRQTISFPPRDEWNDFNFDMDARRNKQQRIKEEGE
# ASSAY_DETAILS: fluorescence anisotropy direct titration; 25 mM sodium phosphate (purification buffer pH 7.2), 225 mM NaCl, 10% v/v glycerol, 5 mM DTT, 0.2 mg/mL BSA, 22 C
# CONDITION_DETAILS: protein: recombinant; tags: N-terminal 6xHis-lipoyl-TEV tag, cleaved; chain copies: 4; label: 5'-Alexa488
EXPERIMENTAL_READOUT: pKd
To interpret pKd, take it as minus log10 of a concentration measured in moles per litre.

-- ask For Ref_Alexa488 (dsDNA) DNA 1: GGACATGTCCGGACATGTCC DNA 2: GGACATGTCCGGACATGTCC , write its pKd.
-- reply 7.12
